Tested on: RPMI-8226 leukemia
METHOD NOTES: NCI tumour cell line growth inhibition, 48 h
ENDPOINT: TGI

Reference set (5 entries):
- COMPOUND: "COc1ccc(OC)c([N+](=O)[O-])c1-c1nc2sc(C)cn2c1/C=N/N=C(N)N"
  RECORDED MEASUREMENT: "> 100 µM"
- COMPOUND: "CCOC(=O)CCN1C(=O)c2c(NC(=O)C(=O)O)cccc2S1(=O)=O"
  RECORDED MEASUREMENT: "> 100 µM"
- COMPOUND: "CC(=O)OCC12C(OC(C)=O)C[C@@H](C)C3(CC(c4ccoc4)OC3=O)C1CCC(OC(C)=O)C21CO1 (stereo partly specified)"
  RECORDED MEASUREMENT: "> 100 µM"
- COMPOUND: "Cc1cnc2cc(Cl)ccc2c1SCC(=O)O"
  RECORDED MEASUREMENT: "> 100 µM"
- COMPOUND: "CCC[CH2][Sn]1([CH2]CCC)[O]N=Cc2ccccc2[O]1"
  RECORDED MEASUREMENT: "0.848 µM"

Alright, here's another compound for you.
Task: # query: TGI of entry COC1OC2COC(c3ccccc3)OC2C(OC(=S)c2ccccc2)C1O (stereo unspecified)
Result: > 100 µM

* * *

System: A498 renal
METHOD NOTES: NCI tumour cell line growth inhibition, 48 h
ENDPOINT: TGI (µM)
Give just the number in µM; leave the unit off.

Reference set (4 entries):
- STRUCTURE SMILES STRING: "COc1cc2cc(Oc3ccc(NC(=O)Nc4cc(C(F)(F)F)cc(C(F)(F)F)c4)cc3)c(C)nc2cc1OCCN1CCCCC1"
  TGT: "A498 renal"
  OUTPUT UNIT: "µM"
  TGI: 3.23
- STRUCTURE SMILES STRING: "CN1C(=O)[C@](C)(Cc2ccc(F)cc2)N(C(=O)OC(C)(C)C)[C@@H]1C(C)(C)C"
  TGT: "A498 renal"
  OUTPUT UNIT: "µM"
  TGI: 70
- STRUCTURE SMILES STRING: "O=C1/C(=C/Cc2ccco2)N=C(c2ccccc2)N1c1nc2c(Cl)cc(Cl)cc2s1"
  TGT: "A498 renal"
  OUTPUT UNIT: "µM"
  TGI: 43.4
- STRUCTURE SMILES STRING: "CCc1cc2c(c3[nH]ccc13)[C@@H](C)C[C@H]2C"
  TGT: "A498 renal"
  OUTPUT UNIT: "µM"
  TGI: 30.2

Alright, here's another molecule for you.
Task: # query: TGI of entry C=C1C(=O)O[C@H]2[C@H]1CC/C(COC(=O)c1ccc(Br)cc1)=C\CC[C@@]1(C)O[C@@H]21
Result: 23.7

* * *

Test system: LOX IMVI melanoma
METHOD NOTES: NCI tumour cell line growth inhibition, 48 h
Listed molecules paired with reported GI50

- MOLECULE: "Nc1cc2ccncc2c2ccccc12"
  TGT: "LOX IMVI melanoma"
  RECORDED MEASUREMENT: "8680 nM"
- MOLECULE: "c1cc[c]([Sn]([O]c2cccc3cccnc23)([c]2ccccc2)[c]2ccccc2)cc1"
  TGT: "LOX IMVI melanoma"
  RECORDED MEASUREMENT: "13.2 nM"
- MOLECULE: "COc1cc(C2CC(c3cc(Cl)c(C)cc3O)=NN2c2ccc(S(N)(=O)=O)cc2)cc(OC)c1OC (stereo unspecified)"
  TGT: "LOX IMVI melanoma"
  RECORDED MEASUREMENT: "2080 nM"
- MOLECULE: "COC(=O)[C@@H](C)C[C@H](Cc1ccccc1)NC(=O)c1csc([C@@H](C[C@H](C(C)C)N(C)C(=O)[C@@H](NC(=O)CN(C)C)C2CC2)OC(C)=O)n1"
  TGT: "LOX IMVI melanoma"
  RECORDED MEASUREMENT: "30.1 nM"
- MOLECULE: "COc1ccc(OC)c(/C=C/C(=O)c2ccc(SC)cc2)c1"
  TGT: "LOX IMVI melanoma"
  RECORDED MEASUREMENT: "12300 nM"
- MOLECULE: "Cn1ccnc1C(=O)/C=C/c1ccc(CC(=O)Nc2cc(F)c(F)c(F)c2)cc1"
  TGT: "LOX IMVI melanoma"
  RECORDED MEASUREMENT: "1030 nM"

Task: # query: GI50 of entry CO[C@H]1/C=C/C=C/C=C/C[C@H](OC(=O)[C@@H](C)NC(=O)C2CCCCC2)[C@H](C)[C@@H](O)/C(C)=C\CCC2=CC(=O)C=C(NC(=O)C1)C2=O
Result: 104 nM

Task: Then this molecule: Cc1cncc2cccc(S(=O)(=O)N3CCCNC[C@@H]3C)c12
Result: 7940 nM

Task: Then this molecule: O=C(CN1CCN(c2cc3c(cc2F)c(=O)c(C(=O)O)cn3C2CC2)CC1)Nc1ccc(C(=O)/C=C/c2ccccc2)cc1
Result: 2320 nM

Task: Then this molecule: Cn1cc(C2=C(c3cccc(Cl)c3)C(=O)NC2=O)c2ccccc21
Result: > 25000 nM

Task: Then this molecule: CCC[CH2][Sn]1([CH2]CCC)[O]N=Cc2ccccc2[O]1
Result: 377 nM

* * *

Listed molecules paired with reported TGI
System: KM12 colon
METHOD NOTES: NCI tumour cell line growth inhibition, 48 h

Reference set (3 entries):
- MOLECULE: "CC1=NNC(N)=N/C1=C\\C(Sc1ccc(Cl)cc1)c1ccc(Cl)cc1Cl (stereo not given)"
  TGI: "34.2 µM"
- MOLECULE: "COc1ccc(Nc2ccnc3cc(Cl)ccc23)cc1CN(CCCl)CCCl"
  TGI: "9.75 µM"
- MOLECULE: "CC1CN=C(N(C(=O)Nc2ccccc2)C2CCCCC2)S1 (stereo not given)"
  TGI: "36.3 µM"

Alright, here's another molecule for you.
Task: # query: TGI of entry COC(=O)C1=C(C)NC(C)=C(C(=O)OC)C1c1ccccc1[N+](=O)[O-]
Result: > 100 µM

* * *

Tested on: OVCAR-3 ovarian
METHOD NOTES: NCI tumour cell line growth inhibition, 48 h
ENDPOINT: TGI

- MOLECULE: "Clc1cc(-c2csc(Cl)c2)cs1"
  TGI: "> 100 µM"
- MOLECULE: "Cc1cc(=O)oc2c(CN(CCCl)CCCl)c(O)ccc12"
  TGI: "> 100 µM"
- MOLECULE: "C/C(=N/OCCC(=O)O)C1CC1"
  TGI: "> 100 µM"

Task: // fetch OVCAR-3 ovarian TGI for COc1ccc(Nc2ccnc3cc(Cl)ccc23)cc1CN(CCCl)CCCl
Result: 6.04 µM

Task: Then this molecule: N#Cc1nc(-c2ccccn2)c(-c2ccccn2)nc1C#N
Result: > 42.9 µM

Task: Then this molecule: COC1OC(=O)C(OC)C(OC)C1OC (configuration not stated)
Result: > 100 µM

Task: Then this molecule: COC(=O)C([O][Ge]([CH3])([CH3])[CH3])c1ccccc1 (configuration not stated)
Result: > 100 µM

Task: Then this molecule: CCOc1c(Cc2ccccc2)c(=O)n2c3ccccc3n3c(=O)n(C)c(=O)c1c23
Result: > 100 µM

Task: Then this molecule: O=[N+]([O-])C1(CO)COC2(OC1)c1ccccc1-c1ccccc12
Result: > 100 µM

* * *

Tested on: HCT-116 colon
METHOD NOTES: NCI tumour cell line growth inhibition, 48 h; in the data active means GI50 below about 0.43 µM; inactive means the rest
Tick one outcome: t for active, f for inactive

- STRUCTURE SMILES STRING: "O=C(CN1CCN(c2cc3c(cc2F)c(=O)c(C(=O)O)cn3C2CC2)CC1)Nc1ccc(C(=O)/C=C/c2ccccc2)cc1"
  ASSIGNED CLASS: "f"
- STRUCTURE SMILES STRING: "COc1ccc(OC)c(/C=C/C(=O)c2ccc(SC)cc2)c1"
  ASSIGNED CLASS: "f"
- STRUCTURE SMILES STRING: "Clc1ccc2c(NCCNc3nc(Cl)nc4ccccc34)ccnc2c1"
  ASSIGNED CLASS: "t"
- STRUCTURE SMILES STRING: "CCN1CCN(c2nc(NNC(=O)c3cccc(OC)c3)nc(N3CCN(C(c4ccccc4)c4ccccc4)CC3)n2)CC1"
  ASSIGNED CLASS: "f"
- STRUCTURE SMILES STRING: "C[C@@H]1CC[C@H]2C(CN(C)CC3=C(C(F)(F)F)O[C@@H]4O[C@@]5(C)CC[C@H]6[C@H](C)CC[C@@H]3[C@@]46OO5)=C(C(F)(F)F)O[C@@H]3O[C@@]4(C)CC[C@@H]1[C@]32OO4"
  ASSIGNED CLASS: "t"

Task: Check the results log: what was the call for COc1ccc(CN[C@H]2CCc3cc(OC)c(OC)c(OC)c3-c3ccc(SC)c(=O)cc32)c(OC)c1OC ?
Result: t

Task: Then this compound: CCN(CC)c1ccc(/C=C2/NC(=O)NC2=O)cc1
Result: f

Task: Then this compound: COC(=O)C1=C(C)NC(C)=C(C(=O)OC)C1c1ccccc1[N+](=O)[O-]
Result: f

Task: Then this compound: CN1CCN(Cc2ccc(NC(=O)c3cncc(C#Cc4cncc5[nH]ncc45)c3)cc2C(F)(F)F)CC1
Result: t

Task: Then this compound: O=C1c2ccccc2-c2c1c1ccccc1c(=O)n2CCCNCCO
Result: t

Task: Then this compound: Cc1c(-c2ccnc(N)n2)c2c(n1-c1ccccc1)C(=O)c1ccccc1C2=O
Result: f
